- RUN DESCRIPTION: Single-dose clinical study: pharmacokinetics, noncompartmental analysis
- Format: in vivo, human
- RUN CONDITIONS: human, plasma; single IV bolus, hemodialysis subjects; read-out: Total clearance (converted)
EXPERIMENTAL ENDPOINT: clearance

In: Please give the measured clearance for this compound: CC(=O)N[C@H](CSSC[C@H](N)C(=O)O)C(=O)N[C@H](C)C(=O)N[C@H](CCCNC(=N)N)C(=O)N[C@H](CCCNC(=N)N)C(=O)N[C@H](CCCNC(=N)N)C(=O)N[C@H](C)C(=O)N[C@H](CCCNC(=N)N)C(N)=O
Out: ~33.3 mL/min

====

- RUN DESCRIPTION: Single-dose clinical study: pharmacokinetics, noncompartmental analysis
- Format: in vivo, human
- RUN CONDITIONS: human, plasma; Cohort 5, 60 mg single IV bolus, hemodialysis subjects, geometric mean; read-out: T½ (converted)
EXPERIMENTAL ENDPOINT: half-life (h)
Please state the figure in h; there is no need to write the unit.

In: Please give the measured half-life for this compound: CC(=O)N[C@H](CSSC[C@H](N)C(=O)O)C(=O)N[C@H](C)C(=O)N[C@H](CCCNC(=N)N)C(=O)N[C@H](CCCNC(=N)N)C(=O)N[C@H](CCCNC(=N)N)C(=O)N[C@H](C)C(=O)N[C@H](CCCNC(=N)N)C(N)=O [Ac-c(C)arrrar-NH2]
Out: 115

====

- RUN DESCRIPTION: Single-dose clinical study: pharmacokinetics, noncompartmental analysis
- Format: in vivo, human
- RUN CONDITIONS: human, plasma; Cohort 3, 20 mg single IV bolus, hemodialysis subjects, geometric mean; read-out: Vss
EXPERIMENTAL ENDPOINT: Vd (L)
Please state the figure in L; there is no need to write the unit.

In: Please give the measured Vd for this compound: CC(=O)N[C@H](CSSC[C@H](N)C(=O)O)C(=O)N[C@H](C)C(=O)N[C@H](CCCNC(=N)N)C(=O)N[C@H](CCCNC(=N)N)C(=O)N[C@H](CCCNC(=N)N)C(=O)N[C@H](C)C(=O)N[C@H](CCCNC(=N)N)C(N)=O [Ac-c(C)arrrar-NH2]
Out: 293

====

- RUN DESCRIPTION: Single-dose clinical study: pharmacokinetics, noncompartmental analysis
- Type: in vivo, human
- RUN CONDITIONS: human, plasma; Cohort 2, 10 mg single IV bolus, hemodialysis subjects, geometric mean; read-out: T½ (converted)
EXPERIMENTAL ENDPOINT: half-life (h)
Please state the figure in h; there is no need to write the unit.

In: Please give the measured half-life for this molecule: CC(=O)N[C@H](CSSC[C@H](N)C(=O)O)C(=O)N[C@H](C)C(=O)N[C@H](CCCNC(=N)N)C(=O)N[C@H](CCCNC(=N)N)C(=O)N[C@H](CCCNC(=N)N)C(=O)N[C@H](C)C(=O)N[C@H](CCCNC(=N)N)C(N)=O
Out: 81.7

====

- RUN DESCRIPTION: Single-dose clinical study: pharmacokinetics, noncompartmental analysis
- Type: in vivo, human
- RUN CONDITIONS: human, in vivo, intravenous; estimated; hemodialysis subjects; read-out: Hemodialysis clearance (converted)
EXPERIMENTAL ENDPOINT: clearance

In: Please give the measured clearance for this compound: CC(=O)N[C@H](CSSC[C@H](N)C(=O)O)C(=O)N[C@H](C)C(=O)N[C@H](CCCNC(=N)N)C(=O)N[C@H](CCCNC(=N)N)C(=O)N[C@H](CCCNC(=N)N)C(=O)N[C@H](C)C(=O)N[C@H](CCCNC(=N)N)C(N)=O
Out: ~550 mL/min
